Target: T1, 4H344-bH
T1 chain: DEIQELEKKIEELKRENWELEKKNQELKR
Assay: two-hybrid library CCNG1;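 note: natural log of median RNA to DNA barcode read ratio; higher means stronger binding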
Tag: fulfilled if measured interaction score is not below 0.8, not fulfilled if it is.

For this binder, is measured interaction score 0.8 or higher? DKIQELKKENEELERKNWELKKEIQELER [4H2745-bH] not fulfilled

For this binder, is measured interaction score 0.8 or higher? DKIQELKKEIEELERKNWELKKENQELER [4H2619-bH] fulfilled

For this binder, is measured interaction score 0.8 or higher? DENQELEKEIEELERENWELEKKIQELKR [4H1046-bH] fulfilled

For this binder, is measured interaction score 0.8 or higher? DEIQELEKKIEELKRENWELEKKNQELKR [4H344-bH] fulfilled

For this binder, is measured interaction score 0.8 or higher? DENQELEKEIEELERKIWELKKKNQELKR [4H1072-bH] fulfilled
